system: RPMI-8226; assay: NCI tumour cell line growth inhibition, 48 h
Activity calls are given as the source filed them. Rule as the data show it: active = GI50 up to about 1.1 µM and inactive = higher.
Collected GI50 values appear next to each entry.
Quantity Name: GI50

molecule=Cc1ccc(NC(=O)COC(=O)c2cccc3c(=O)c4ccccc4[nH]c23)cc1 experimental_value="87.7 µM (inactive)"
molecule=O=C1CCCCC/C1=C\c1ccc(Cl)cc1 experimental_value="25.4 µM (inactive)"
molecule=COC(=O)CNC(=O)/C=C/[C@H](O[Si](C)(C)C(C)(C)C)[C@H](/C=C/C(=O)NCC(=O)OC)O[Si](C)(C)C(C)(C)C experimental_value="> 25 µM (inactive)"
molecule=CC(=O)c1ccc2c(c1)C(=O)c1sc(C(C)=O)cc1C2=O experimental_value="1.74 µM (inactive)"
molecule=Cc1cc(N(CCC#N)CCC#N)ccc1/N=N/c1ccc(S(N)(=O)=O)cc1 experimental_value="> 100 µM (inactive)"
molecule=C=CC(C)(C)C(=C)C(=O)N(C)c1ccccc1I experimental_value="> 100 µM (inactive)"
molecule=COc1ccc2c(c1O)-c1c(OC)c(OC)cc3c1[C@H](C2)[N+](C)(C)CC3 experimental_value="> 100 µM (inactive)"
molecule="CCC(C)C1NC(=O)C2CCCN2C(=O)C(CC2CO2)OC(=O)CCNC(=O)C(C)N(C)C(=O)C(C(C)C)N(C)C1=O (centres undefined)" experimental_value="0.968 µM (active)"
molecule="O=C1c2cc3ccccc3cc2C2(c3ccc(Cl)cc3)N[C@H]3CCCC[C@@H]3N12 (some centres undefined)" experimental_value="18.4 µM (inactive)"
molecule="C#C[C@]1(O)CCC2C3CCc4cc(Oc5nc(F)nc(-c6c7cc8ccccc8cc7c7n6CCS7)n5)ccc4C3CCC21C (some centres undefined)" experimental_value="41.5 µM (inactive)"
molecule=CCOC(=O)Cn1nnc2cc(Nc3nc4ccccc4nc3C(=O)OCC)ccc21 experimental_value="> 100 µM (inactive)"
molecule="CCCCC(=O)OCC(=O)[C@]1(O)Cc2c(O)c3c(c(O)c2[C@@H](OC2CC(NC(=O)C(F)(F)F)C(O)C(C)O2)C1)C(=O)c1c(OC)cccc1C3=O (some centres undefined)" experimental_value="0.181 µM (active)"
molecule=CN1C(=O)N(C)C2(CCN(CCCCCCF)CC2)C1=O experimental_value="> 100 µM (inactive)"
molecule="COc1ccc2c(c1)N=C1CSC(c3cccc(Br)c3)N1C2 (centres undefined)" experimental_value="3.72 µM (inactive)"
molecule=O/N=C1\C=Cc2nn(-c3ccccc3)nc2\C1=N/O experimental_value="3.71 µM (inactive)"
molecule="COC(=O)CCC(NC(=S)N/N=C(\\C)c1ccccn1)C(=O)OC (centres undefined)" experimental_value="44.4 µM (inactive)"
molecule=Cc1nc([N+](=O)[O-])cn1CC(=N)N experimental_value="> 100 µM (inactive)"
molecule=COc1ccc(C[C@H](N)C(=O)N2C[C@H](CO)C[C@H](n3ccc(=O)[nH]c3=O)C2)cc1 experimental_value="> 100 µM (inactive)"
molecule=CCOC(=O)Cc1ccc2c(c1O)C(=O)c1c(ccc(CC(=O)OCC)c1O)C2=O experimental_value="> 100 µM (inactive)"
molecule="CC1=C(N2CC2)C(=O)c2nc3n(c2C1=O)CCC3OC(=O)CCl (centres undefined)" experimental_value="0.0955 µM (active)"
molecule=CCN(CCCl)c1cc(CN(C)C)cc(NC(=O)C23CCC(C(=O)Nc4cc(CN(C)C)cc(N(CC)CCCl)c4)(CC2)CC3)c1 experimental_value="1.35 µM (inactive)"
molecule="CCOC(=O)NC(Nc1ncccn1)(C(=O)OCC)C(F)(F)F (centres undefined)" experimental_value="> 100 µM (inactive)"
molecule=Clc1ccc(C[P+](c2ccccc2)(c2ccccc2)c2ccccc2)c(Cl)c1 experimental_value="0.463 µM (active)"
molecule=O/N=C(\CC(O)(C(F)(F)F)C(F)(F)F)c1cccc(Cl)c1 experimental_value="29.9 µM (inactive)"
molecule="CC(=O)O[C@H]1CC[C@@]2(C)C(=CC[C@@H]3C2CC[C@]2(C)Nc4nc5ccccc5cc4CC32)C1 (some centres undefined)" experimental_value="8.65 µM (inactive)"
molecule=COc1ccc(CCCCl)c(C2=NCCc3ccccc32)c1 experimental_value="2.99 µM (inactive)"
molecule=COc1cc([C@@H]2c3cc4c(cc3[C@@H](NC(=O)NO)[C@H]3COC(=O)[C@H]23)OCO4)cc(OC)c1O experimental_value="4.03 µM (inactive)"
molecule=COc1ccc2c(CCN)c(C(=O)O)[nH]c2c1 experimental_value="> 100 µM (inactive)"
molecule=N#CNc1nc(N)c(-c2ccc(Cl)cc2)c(C(=O)Nc2nccs2)n1 experimental_value="> 100 µM (inactive)"
